- TESTED TARGET: Glucagon-like peptide 1 receptor (Homo sapiens) (UniProt P43220)
- Sequence (P43220 whole entry, looked up): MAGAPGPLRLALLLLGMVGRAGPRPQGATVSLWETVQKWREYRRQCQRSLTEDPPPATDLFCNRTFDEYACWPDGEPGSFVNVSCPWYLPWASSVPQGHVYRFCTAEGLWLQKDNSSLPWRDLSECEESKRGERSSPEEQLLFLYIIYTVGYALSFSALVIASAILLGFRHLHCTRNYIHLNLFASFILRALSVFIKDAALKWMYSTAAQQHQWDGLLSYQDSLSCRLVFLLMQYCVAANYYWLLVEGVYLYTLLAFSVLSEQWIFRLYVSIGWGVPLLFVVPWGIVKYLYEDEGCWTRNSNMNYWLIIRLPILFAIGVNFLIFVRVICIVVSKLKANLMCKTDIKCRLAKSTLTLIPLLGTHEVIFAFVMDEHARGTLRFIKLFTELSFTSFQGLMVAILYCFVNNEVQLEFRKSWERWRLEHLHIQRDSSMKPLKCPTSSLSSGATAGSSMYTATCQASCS
- PROCEDURE TEXT: qHTS of GLP-1 Receptor Inverse Agonists (Inhibition Mode); also: nearly all actives have a fitted effect of over 55% in size
- ASSAY CONDITIONS: HEK293 GLP-1R CRE-luciferase, luminescence, 24 h, GLP-1R form is constitutively active; series mostly up to 38.3 µM
About 6,400 (1.6%) of roughly 410,000 compounds were called active. Another 20% or so got no clear call; they are omitted. Calls follow the shape of the dose curve; as a rule, active = well fitted inhibition curve with a large enough effect; inconclusive = small, poorly fitted or top-dose-only effect; inactive = no such curve, though single readings can be large or run the other way. The list comes from a sample in which actives are over-represented; it also holds close analogues and randomly drawn compounds.
Outcome field: choose from 1 for active, 0 for inactive

Example entries begin here.
**Query** Given Cc1ccccc1-c1nc(CS(=O)(=O)CC(=O)NC(C)c2ccccc2)c(C)o1 (stereo unspecified) , state the outcome it received in this test.
**Result** 1

**Query** Now the molecule "CCNC(=O)CCc1nc(-c2ccc(C)cc2)no1"
**Result** 0

**Query** Now the molecule "CC(=O)c1nn(-c2ccccc2)c(=Nc2ccccc2)cc1C"
**Result** 0

**Query** Now the molecule "CC(=O)N1Cc2cc(C(=O)NCc3cccc(F)c3)nc(-c3cccc(C4=CCCC4)c3)c2[C@H]1CCO"
**Result** 0

Consider the record given below.
**Query** Given "Cc1ccc2cccc(NC(=O)c3ccc(OC(C)C)cc3)c2n1" , state the outcome it received in this test.
**Result** 0

###

- TESTED TARGET: Glucagon-like peptide 1 receptor (Homo sapiens) (UniProt P43220)
- PROCEDURE TEXT: qHTS of GLP-1 Receptor Inverse Agonists (Inhibition Mode); also: nearly all actives have a fitted effect of over 55% in size
- ASSAY CONDITIONS: HEK293 GLP-1R CRE-luciferase, luminescence, 24 h, GLP-1R form is constitutively active; series mostly up to 38.3 µM
The campaign covered roughly 410,000 compounds. About 6,400 (1.6%) were called active. About 20% were inconclusive and are not listed. The call rests on the fitted dose curve; in most records, active means well fitted inhibition curve with a large enough effect; inconclusive means small, poorly fitted or top-dose-only effect; inactive means no such curve, though single readings can be large or run the other way. The entries come from a sample that favours actives as a whole.
Outcome field: choose from active, inactive

**Query** Given "O=C(O)c1ccccc1-c1cccc2nncn12" , state the outcome it received in this test.
**Result** inactive

**Query** Now the compound "COc1cc2c(cc1OC)C(Nc1ccc(S(N)(=O)=O)cc1)=NC(C)(C)C2"
**Result** inactive

**Query** Now the compound CC1(C)C(C=C(Cl)Cl)C1C(=O)N(Cc1ccc(Cl)cc1)C1CCS(=O)(=O)C1 (stereo not given)
**Result** active

**Query** Now the compound "CCc1nc2ccc(C(=O)NC3CCN(Cc4ccccc4)CC3)cn2c1N(C)CCN1CCOCC1"
**Result** inactive

**Query** Now the compound "COc1ccc2sc(-c3ccccc3OC)c(-c3ccc(OCCN4CCCC4)cc3)c2c1"
**Result** inactive

**Query** Now the compound "COc1ccccc1-c1sc2ccccc2c1-c1ccc(Br)nc1"
**Result** active

Continuing:
**Query** Given Cc1cc(Cl)ccc1OCC(=O)N(Cc1ccc(N(C)C)cc1)C1CCS(=O)(=O)C1 (stereo not given) , state the outcome it received in this test.
**Result** inactive

**Query** Now the compound "O=C(CC[C@H]1O[C@@H](n2ccc(=O)[nH]c2=O)[C@H](O)[C@@H]1O)N[C@H](Cc1ccccc1)C(=O)NCc1ccco1"
**Result** inactive

**Query** Now the compound "CCc1nc2ccc(C(=O)NC3CCN(Cc4ccccc4)CC3)cn2c1N(CC)CCOC"
**Result** inactive

**Query** Now the compound "COc1cc2c(cc1OC)C(C(C)C)=NC(C)(C)C2"
**Result** inactive

###

- TESTED TARGET: Glucagon-like peptide 1 receptor (Homo sapiens)
- PROCEDURE TEXT: qHTS of GLP-1 Receptor Inverse Agonists (Inhibition Mode); also: nearly all actives have a fitted effect of over 55% in size; also: potency is read from the fitted curve at half-maximal effect
- ASSAY CONDITIONS: HEK293 GLP-1R CRE-luciferase, luminescence, 24 h, GLP-1R form is constitutively active; series mostly up to 38.3 µM
Among all 410,000 compounds or so, about 6,400 (1.6%) were called active. About 20% were inconclusive and are not listed. For the sample, actives were picked, then their nearest neighbours and some compounds at random.
METRIC NAME: Potency

Some compounds with known Potency results, for comparison:
**Query** Which Potency is listed for "Cc1cc2ncn(CCCCOc3ccccc3)c2cc1C" ?
**Result** 10 µM (active)

**Query** Now the compound "CN(c1ccccc1)S(=O)(=O)c1cccc(NC(=O)Cc2c(F)cccc2Cl)c1"
**Result** 7.94 µM (active)

**Query** Now the compound "O=c1[nH]n(-c2ccc([N+](=O)[O-])cc2)c(=O)c2ccccc12"
**Result** 5.01 µM (active)

**Query** Now the compound "Cc1ccc(NC(=O)CCNS(=O)(=O)c2ccc3c(c2)oc(=O)n3C)cc1C"
**Result** inactive

Continuing:
**Query** Which Potency is listed for "CC(C)Cn1cc(-c2cncc3nccn23)cn1" ?
**Result** inactive

**Query** Now the compound "COc1cnn(-c2ccc([N+](=O)[O-])cc2)c(=O)c1Cl"
**Result** inactive

**Query** Now the compound "Cc1ccc(S(=O)(=O)NCCC(=O)Nc2ccc(C)c(Cl)c2)cc1C"
**Result** 7.08 µM (active)

**Query** Now the compound "Cc1ccc(S(=O)(=O)NCCC(=O)Nc2cccc(S(N)(=O)=O)c2)cc1C"
**Result** inactive

###

- TESTED TARGET: Glucagon-like peptide 1 receptor (Homo sapiens)
- PROCEDURE TEXT: qHTS of GLP-1 Receptor Inverse Agonists (Inhibition Mode); also: nearly all actives have a fitted effect of over 55% in size
- ASSAY CONDITIONS: HEK293 GLP-1R CRE-luciferase, luminescence, 24 h, GLP-1R form is constitutively active; series mostly up to 38.3 µM
The whole screen tested about 410,000 compounds, of which about 6,400 (1.6%) were called active. About 20% were inconclusive and are not listed. The call rests on the fitted dose curve; in most records, active means well fitted inhibition curve with a large enough effect; inconclusive means small, poorly fitted or top-dose-only effect; inactive means no such curve, though single readings can be large or run the other way. Many of the other results were omitted from the sample, so actives are more common in it than they were.
Outcome field: choose from active, inactive

Example entries begin here.
**Query** Given CSCc1nnc(NC(=O)c2ccc(S(=O)(=O)N3CCCCC3C)cc2)o1 (configuration not stated) , state the outcome it received in this test.
**Result** inactive

**Query** Now the molecule O=C(CCNS(=O)(=O)c1ccc(Br)cc1)NCC1CCCO1 (configuration not stated)
**Result** inactive

**Query** Now the molecule "O=C(NCc1nnnn1-c1ccc(Cl)cc1)c1ccc([N+](=O)[O-])o1"
**Result** inactive

**Query** Now the molecule "CCSc1nsc(NC(=O)Nc2ccccc2OC)n1"
**Result** active

**Query** Now the molecule "COc1ccccc1NC(=S)NC(=O)C(C)C"
**Result** inactive

Continuing:
**Query** Given "CCc1nc(SCC(=O)Nc2ccccc2OC)n[nH]1" , state the outcome it received in this test.
**Result** inactive

**Query** Now the molecule O=C(CSc1ccc(-c2ccc(Br)cc2)nn1)NCC1CCCO1 (configuration not stated)
**Result** inactive

**Query** Now the molecule O=S1(=O)CC(N2CCSCC2)CN1Cc1cn(Cc2cccc(Cl)c2)nn1 (configuration not stated)
**Result** inactive

**Query** Now the molecule O=C(c1[nH]ncc1-c1ccc(Cl)cc1)C1CO1 (configuration not stated)
**Result** active

###

- TESTED TARGET: Glucagon-like peptide 1 receptor (Homo sapiens) (UniProt P43220)
- PROCEDURE TEXT: qHTS of GLP-1 Receptor Inverse Agonists (Inhibition Mode); also: nearly all actives have a fitted effect of over 55% in size
- ASSAY CONDITIONS: HEK293 GLP-1R CRE-luciferase, luminescence, 24 h, GLP-1R form is constitutively active; series mostly up to 38.3 µM
Hit rate of the full screen: of about 410,000 compounds, about 6,400 (1.6%) were called active. Not shown: some 20% with an inconclusive outcome. The call rests on the fitted dose curve; in most records, active means well fitted inhibition curve with a large enough effect; inconclusive means small, poorly fitted or top-dose-only effect; inactive means no such curve, though single readings can be large or run the other way. The sample as a whole holds a higher share of actives than the screen did.
Outcome field: choose from active, inactive

Example entries begin here.
**Query** Given "CC(=O)c1nn(-c2ccc(OC(F)(F)F)cc2)nc1Nc1ccccc1" , state the outcome it received in this test.
**Result** inactive

**Query** Now the molecule CC1CCc2c(nc3ncnn3c2Nc2ccc(OC(F)(F)F)cc2)C1 (stereo unspecified)
**Result** active

**Query** Now the molecule "CS(=O)(=O)N(CC(=O)N1CCc2ccccc2C1)c1ccc(Br)cc1"
**Result** inactive

**Query** Now the molecule "Brc1ccc(Nc2c3c(nc4ncnn24)CCC3)cc1"
**Result** inactive

**Query** Now the molecule "CCCCCN(C(=O)NC(=O)Nc1ccccc1OC)S(C)(=O)=O"
**Result** inactive

Continuing:
**Query** Given CCCCCCCC(=O)NC(Nc1ccccc1OC)C(Cl)(Cl)Cl (stereo unspecified) , state the outcome it received in this test.
**Result** active

**Query** Now the molecule "COc1cccc(N(CC(=O)N2CCc3ccccc3C2)S(C)(=O)=O)c1"
**Result** inactive

**Query** Now the molecule "CC(=O)Nc1ccc(CNc2nc(NCCN(C)C)nc3cc(-c4ccccc4)sc23)cc1"
**Result** inactive

**Query** Now the molecule "Cc1ccc(-c2ccc(C3=CC(=O)CC(C)(C)C3=O)cc2)cc1"
**Result** inactive

**Query** Now the molecule "CN(C)C(=O)c1cccc(-c2cnc3c(NC=O)cc(-c4ccc(C(=O)N5CCOCC5)cc4)cn23)c1"
**Result** inactive

**Query** Now the molecule CCCC(=O)NC(Nc1ccccc1OC)C(Cl)(Cl)Cl (stereo unspecified)
**Result** inactive
